# Method Description: Solubility measurement in various solvents at 50 ± 1° C. (Procedure 2)
# Assay type: physicochemical
# Condition Parameters: organic solvent or mixture, thermodynamic from solid; at 50° C. in MeCN, 1,4-dioxane, MeOH, 2-methoxyethanol, THF, acetone, n-BuOH, EtOH, ethyl formate, 1-propanol, MEK, acetone water (2:1), acetone water (1:1), MIBK, EtOAc, IPA, and acetone water (1:2); read-out: Solubility (slightly soluble)
Reported Metric: solubility

Could you share which solubility value was measured for C=CC(=O)NCc1cc2c(cn1)CN(c1c(F)c(OC)cc(OC)c1F)C(=O)C21CC1 [Compound 1 Form I] ? 1 to 50 mg/mL

----------
# Method Description: Solubility measurement in various solvents at 23 ± 1° C. (Procedure 1)
# Format: physicochemical
# Condition Parameters: toluene, 23 °C, organic solvent or mixture, thermodynamic from solid, Toluene; read-out: Solubility at 23 ± 1° C.
Reported Metric: solubility (µg/mL)
Note: unit µg/mL is implicit; provide only the numeric part.

So what does the record say about solubility for C=CC(=O)NCc1cc2c(cn1)CN(c1c(F)c(OC)cc(OC)c1F)C(=O)C21CC1 [Form IV] ? 150

----------
# Method Description: Solubility measurement in various solvents at 50 ± 1° C. (Procedure 2)
# Assay type: physicochemical
# Condition Parameters: IPAc, 50 °C, organic solvent or mixture, thermodynamic from solid, IPAc; read-out: Solubility at 50 ± 1° C.
Reported Metric: solubility (µg/mL)
Give the quantity in µg/mL, number only.

Item under review: C=CC(=O)NCc1cc2c(cn1)CN(c1c(F)c(OC)cc(OC)c1F)C(=O)C21CC1 [Compound 1 Form I] . Reported solubility? 980

----------
# Method Description: Solubility measurement in various solvents at 23 ± 1° C. (Procedure 1)
# Type: physicochemical
# Condition Parameters: IPA, 23 °C, organic solvent or mixture, thermodynamic from solid, IPA; read-out: Solubility at 23 ± 1° C.
Reported Metric: solubility (µg/mL)
Provide only the numeric value, understood in µg/mL.

Give the measured solubility of C=CC(=O)NCc1cc2c(cn1)CN(c1c(F)c(OC)cc(OC)c1F)C(=O)C21CC1 [Compound 1 Form I] . 900

----------
# Method Description: Solubility measurement in various solvents at 23 ± 1° C. (Procedure 1)
# Assay type: physicochemical
# Condition Parameters: MeCN, 23 °C, organic solvent or mixture, thermodynamic from solid, MeCN; read-out: Solubility at 23 ± 1° C.
Reported Metric: solubility (µg/mL)
Give the value, in units of µg/mL, as a plain number.

Using the record for C=CC(=O)NCc1cc2c(cn1)CN(c1c(F)c(OC)cc(OC)c1F)C(=O)C21CC1 [Compound 1 Form I] , report its solubility. 4590

----------
# Method Description: Solubility measurement in various solvents at 50 ± 1° C. (Procedure 2)
# Assay type: physicochemical
# Condition Parameters: DMF, 50 °C, organic solvent or mixture, thermodynamic from solid, DMF; read-out: Solubility at 50 ± 1° C.
Reported Metric: solubility

Which solubility reading was recorded for the compound C=CC(=O)NCc1cc2c(cn1)CN(c1c(F)c(OC)cc(OC)c1F)C(=O)C21CC1 [Compound 1 Form I] ? > 50 mg/mL

----------
# Method Description: Solubility measurement in various solvents at 23 ± 1° C. (Procedure 1)
# Assay type: physicochemical
# Condition Parameters: methanol, 23 °C, organic solvent or mixture, thermodynamic from solid, Methanol; read-out: Solubility at 23 ± 1° C.
Reported Metric: solubility

Given the molecule C=CC(=O)NCc1cc2c(cn1)CN(c1c(F)c(OC)cc(OC)c1F)C(=O)C21CC1 [Compound 1 Form I] , what is its reported solubility? 5350 µg/mL

----------
# Method Description: Solubility measurement in various solvents at 23 ± 1° C. (Procedure 1)
# Type: physicochemical
# Condition Parameters: DMSO, 23 °C, organic solvent or mixture, thermodynamic from solid, DMSO; read-out: Solubility at 23 ± 1° C.
Reported Metric: solubility

Given the compound C=CC(=O)NCc1cc2c(cn1)CN(c1c(F)c(OC)cc(OC)c1F)C(=O)C21CC1 [Compound 1 Form I] , what is its reported solubility? > 50 mg/mL

----------
# Method Description: Solubility measurement in various solvents at 50 ± 1° C. (Procedure 2)
# Assay type: physicochemical
# Condition Parameters: Acetone/water (1:1), 50 °C, aqueous with cosolvent or surfactant or cyclodextrin, thermodynamic from solid, Acetone/water (1:1); read-out: Solubility at 50 ± 1° C.
Reported Metric: solubility (mg/mL)
Output spec: scalar in mg/mL, unitless text.

Given the compound C=CC(=O)NCc1cc2c(cn1)CN(c1c(F)c(OC)cc(OC)c1F)C(=O)C21CC1 [Compound 1 Form I] , what is its reported solubility? 12.6

----------
# Method Description: Solubility measurement in various solvents at 23 ± 1° C. (Procedure 1)
# Type: physicochemical
# Condition Parameters: Acetone/water (2:1), 23 °C, aqueous with cosolvent or surfactant or cyclodextrin, thermodynamic from solid, Acetone/water (2:1); read-out: Solubility at 23 ± 1° C.
Reported Metric: solubility (mg/mL)
Give just the numeric value; mg/mL need not be written.

solubility for C=CC(=O)NCc1cc2c(cn1)CN(c1c(F)c(OC)cc(OC)c1F)C(=O)C21CC1 [Compound 1 Form I] ? 12.5

----------
# Method Description: Solubility measurement in various solvents at 50 ± 1° C. (Procedure 2)
# Format: physicochemical
# Condition Parameters: hexane, 50 °C, organic solvent or mixture, thermodynamic from solid, Hexane; read-out: Solubility at 50 ± 1° C.
Reported Metric: solubility (µg/mL)
Quick reminder: number only, in µg/mL, skip the unit.

# lookup: solubility of C=CC(=O)NCc1cc2c(cn1)CN(c1c(F)c(OC)cc(OC)c1F)C(=O)C21CC1 [Compound 1 Form I] 60

----------
# Method Description: Solubility measurement in various solvents at 50 ± 1° C. (Procedure 2)
# Type: physicochemical
# Condition Parameters: THF, 50 °C, organic solvent or mixture, thermodynamic from solid, THF; read-out: Solubility at 50 ± 1° C.
Reported Metric: solubility (mg/mL)
Answer format: numeric, mg/mL implied, no suffix.

What value of solubility has been reported for the following compound? C=CC(=O)NCc1cc2c(cn1)CN(c1c(F)c(OC)cc(OC)c1F)C(=O)C21CC1 [Compound 1 Form I] 11.3

----------
# Method Description: Solubility measurement in various solvents at 50 ± 1° C. (Procedure 2)
# Assay type: physicochemical
# Condition Parameters: Acetone/water (1:2), 50 °C, aqueous with cosolvent or surfactant or cyclodextrin, thermodynamic from solid, Acetone/water (1:2); read-out: Solubility at 50 ± 1° C.
Reported Metric: solubility (µg/mL)
Return type: number; implicit unit µg/mL.

Request the reported solubility associated with C=CC(=O)NCc1cc2c(cn1)CN(c1c(F)c(OC)cc(OC)c1F)C(=O)C21CC1 [Compound 1 Form I] 3530

----------
# Method Description: Solubility measurement in various solvents at 23 ± 1° C. (Procedure 1)
# Assay type: physicochemical
# Condition Parameters: Dichloromethane, 23 °C, organic solvent or mixture, thermodynamic from solid, Dichloromethane; read-out: Solubility at 23 ± 1° C.
Reported Metric: solubility (mg/mL)
Give a bare numeral; the unit mg/mL is implied.

// returns reported solubility for input C=CC(=O)NCc1cc2c(cn1)CN(c1c(F)c(OC)cc(OC)c1F)C(=O)C21CC1 [Compound 1 Form I] 12.5

----------
# Method Description: Solubility measurement in various solvents at 50 ± 1° C. (Procedure 2)
# Format: physicochemical
# Condition Parameters: 2-methoxyethanol, 50 °C, organic solvent or mixture, thermodynamic from solid, 2-Methoxyethanol; read-out: Solubility at 50 ± 1° C.
Reported Metric: solubility
Report the figure along with its unit, number first.

Sample C=CC(=O)NCc1cc2c(cn1)CN(c1c(F)c(OC)cc(OC)c1F)C(=O)C21CC1 [Compound 1 Form I] — what was its solubility? 36.6 mg/mL

----------
# Method Description: Solubility measurement in various solvents at 23 ± 1° C. (Procedure 1)
# Assay type: physicochemical
# Condition Parameters: DMSO, DMF, DCM/MeOH (1:1), THF/water (4:1), 23 °C, organic solvent or mixture, thermodynamic from solid, at 23° C. in DMSO, DMF, DCM/MeOH (1:1), and THF/water (4:1); read-out: Solubility (completely soluble)
Reported Metric: solubility

GET /values?readout=solubility&item= C=CC(=O)NCc1cc2c(cn1)CN(c1c(F)c(OC)cc(OC)c1F)C(=O)C21CC1 [Compound 1 Form I] > 50 mg/mL

----------
# Method Description: Solubility measurement in various solvents at 50 ± 1° C. (Procedure 2)
# Format: physicochemical
# Condition Parameters: MIBK, 50 °C, organic solvent or mixture, thermodynamic from solid, MIBK; read-out: Solubility at 50 ± 1° C.
Reported Metric: solubility (µg/mL)
Only the number, expressed in µg/mL, is required.

Query (molecule): C=CC(=O)NCc1cc2c(cn1)CN(c1c(F)c(OC)cc(OC)c1F)C(=O)C21CC1 [Compound 1 Form I] ; field requested: solubility 2950
